Biological target: PIM2 (human)
Assay: radiometric filter-binding kinase assay, Kinase HotSpot
Settings: compound 0.5 µM; ATP 10 µM
Let's look at some compounds and their measured residual activity.

Structure as smiles	residual activity [%]
c1ccc(-c2cnc(Nc3ccc(OCCN4CCCC4)cc3)s2)cc1	108
O=c1c(-c2ccc(F)cc2)c(-c2ccncc2)[nH]n1-c1ccc(Cl)cc1	114
Nc1ncnc2c1cnn2-c1ccccc1	98.2
COc1cc2c(Nc3ccc(Br)cc3F)ncnc2cc1OCC1CCN(C)CC1	99.4
O=c1[nH]c2ccccc2n1C1CCN(Cc2ccc(-c3nc4cc5[nH]cnc5cc4nc3-c3ccccc3)cc2)CC1	111
O=S(=O)(NCCNC/C=C/c1ccc(Br)cc1)c1cccc2cnccc12	104
O=C(c1ccccc1)c1ccc(N2CCOCC2)cc1O	105
CCCCc1c(-c2ccc(O)cc2)[nH]c2nccnc12	121
N#CCCc1ccc2c(c1)-c1[nH]c3ccc([N+](=O)[O-])cc3c1CC(=O)N2	104
N#Cc1c(NC(=O)c2cccc3ccccc23)sc2c1CCCC2	104
O=C(O)c1ccc2c3c1cccc3c(=O)n1c3ccccc3nc21	41.7
O=C1NC(=O)c2cc(Nc3ccc(F)cc3)c(Nc3ccc(F)cc3)cc21	98.6
CCOc1cc2ncnc(Nc3cccc(Br)c3)c2cc1OCC	98.9
CCc1nc(-c2ccc(OC)cc2)[nH]c1-c1ccncc1	105
O=C1NC(=O)c2c1c1c3ccccc3[nH]c1c1[nH]c3cc(Br)ccc3c21	44.6
FC(F)(F)c1ccc(/C=C/c2nc(COc3ccc(CCCCn4ccnn4)cc3)co2)cc1	116
O=c1c2ccccc2[nH]c(=S)n1CCN1CCC(=C(c2ccc(F)cc2)c2ccc(F)cc2)CC1	129
COc1cc2ncnc(Nc3ccc(O)c(Br)c3)c2cc1OC	94.1
COc1cc2c(cc1OC)-c1[nH]nc(Nc3cccc(F)c3)c1C2	119
COc1cc2c(N3CCN(C(=O)Nc4ccc(OC(C)C)cc4)CC3)ncnc2cc1OCCCN1CCCCC1	113
Cn1cc(/C=C2\C(=O)Nc3ccc(S(N)(=O)=O)cc32)c2ccccc21	101
N/C(=N\N=C/c1ccc(-c2cccc([N+](=O)[O-])c2)o1)N[N+](=O)[O-]	106

* * *

Target: PTK6 (human) (UniProt Q13882)
Sequence (Q13882 whole entry, looked up): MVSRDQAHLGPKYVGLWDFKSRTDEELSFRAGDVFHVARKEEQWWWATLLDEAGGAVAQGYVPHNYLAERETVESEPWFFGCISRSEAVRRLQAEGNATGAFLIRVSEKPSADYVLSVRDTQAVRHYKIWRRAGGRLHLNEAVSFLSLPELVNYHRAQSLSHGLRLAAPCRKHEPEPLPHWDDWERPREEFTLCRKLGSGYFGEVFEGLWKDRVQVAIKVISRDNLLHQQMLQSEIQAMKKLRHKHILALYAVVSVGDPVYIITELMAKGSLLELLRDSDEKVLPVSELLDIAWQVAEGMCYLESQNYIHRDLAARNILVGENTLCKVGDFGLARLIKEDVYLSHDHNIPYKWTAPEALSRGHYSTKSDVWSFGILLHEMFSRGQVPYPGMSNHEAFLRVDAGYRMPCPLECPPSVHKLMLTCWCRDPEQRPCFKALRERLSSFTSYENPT
Experiment: radiometric filter-binding kinase assay, Kinase HotSpot
Details: compound 0.5 µM; ATP 10 µM

Structure as smiles	residual activity, %
O=C(O)c1ccc2c3c1cccc3c(=O)n1c3ccccc3nc21	91.1
COc1cc2ncnc(Nc3ccc(O)c(Br)c3)c2cc1OC	20.1
CCCCc1c(-c2ccc(O)cc2)[nH]c2nccnc12	29.7
N#Cc1c(NC(=O)c2cccc3ccccc23)sc2c1CCCC2	89.8

* * *

Let's look at some compounds and their measured residual activity.
Biological target: PAK1 (human) (UniProt Q13153)
Sequence (Q13153 whole entry, looked up): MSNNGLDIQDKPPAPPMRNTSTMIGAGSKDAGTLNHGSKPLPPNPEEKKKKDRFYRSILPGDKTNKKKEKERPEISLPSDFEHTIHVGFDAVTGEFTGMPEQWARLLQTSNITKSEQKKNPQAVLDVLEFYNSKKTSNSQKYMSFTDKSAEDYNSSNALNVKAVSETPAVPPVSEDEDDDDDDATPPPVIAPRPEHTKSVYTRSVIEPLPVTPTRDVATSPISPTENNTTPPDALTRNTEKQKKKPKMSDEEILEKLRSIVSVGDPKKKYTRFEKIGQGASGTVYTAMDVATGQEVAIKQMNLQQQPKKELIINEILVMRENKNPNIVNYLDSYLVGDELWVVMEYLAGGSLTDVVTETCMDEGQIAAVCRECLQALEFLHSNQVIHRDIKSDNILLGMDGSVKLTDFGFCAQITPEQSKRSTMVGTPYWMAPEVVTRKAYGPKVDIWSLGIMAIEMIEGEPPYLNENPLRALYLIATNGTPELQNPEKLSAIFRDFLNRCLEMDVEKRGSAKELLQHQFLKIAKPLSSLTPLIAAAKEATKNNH
Experiment: radiometric filter-binding kinase assay, Kinase HotSpot
Details: compound 0.5 µM; ATP 10 µM

Structure as smiles	residual activity (%)
O=c1cc(N2CCOCC2)oc2c(-c3ccccc3)cccc12	97.8
CCCCc1c(-c2ccc(O)cc2)[nH]c2nccnc12	81.4
O=c1c(-c2ccc(F)cc2)c(-c2ccncc2)[nH]n1-c1ccc(Cl)cc1	92.4
O=C1NC(=O)c2cc(Nc3ccc(F)cc3)c(Nc3ccc(F)cc3)cc21	95.5
O=c1c2ccccc2[nH]c(=S)n1CCN1CCC(=C(c2ccc(F)cc2)c2ccc(F)cc2)CC1	94.6
O=C(O)c1ccc2c3c1cccc3c(=O)n1c3ccccc3nc21	95.6
O=C(c1ccccc1)c1ccc(N2CCOCC2)cc1O	91.8
CCc1nc(-c2ccc(OC)cc2)[nH]c1-c1ccncc1	99.3
O=C1NC(=O)c2c1c1c3ccccc3[nH]c1c1[nH]c3cc(Br)ccc3c21	87.8
O=c1[nH]c2ccccc2n1C1CCN(Cc2ccc(-c3nc4cc5[nH]cnc5cc4nc3-c3ccccc3)cc2)CC1	90.6
CCOc1cc2ncnc(Nc3cccc(Br)c3)c2cc1OCC	95.2

Values from the kinase profiling compilation of Christmann-Franck et al. (2016)
